Assay Protocol: BSK_BE3C_SRB: Viability Assessment in the BioMAP Diversity Plus: BE3C Assay (AID 2283028);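 also: measured 24 h after chemical dosing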
Details: primary human bronchial epithelial cells
Calls of active or inactive are those of the source. The calls were made as follows: active = hit-call score of the fitted dose curve at least 0.9, where 1 is the maximum; inactive = score below 0.9.
Possible outcomes: true = active, false = inactive

Compound	Answer Label
N#Cc1nn(-c2c(Cl)cc(C(F)(F)F)cc2Cl)c(N)c1S(=O)C(F)(F)F (configuration not stated)	true
COc1nc(C)nc(NC(=O)NS(=O)(=O)c2ccccc2CCC(F)(F)F)n1	false
COc1nc(NC(C)C)nc(NC(C)C)n1	false
CCNc1nc(Cl)nc(NC(C)C)n1	false
CO/C=C(/C(=O)OC)c1ccccc1Oc1cc(Oc2ccccc2C#N)ncn1	false
CC1COC(Cn2cncn2)(c2ccc(Oc3ccc(Cl)cc3)cc2Cl)O1 (configuration not stated)	true
C=CCC1=C(C)C(OC(=O)C2C(C=C(C)C)C2(C)C)CC1=O (configuration not stated)	false
COC(=O)c1ccccc1C(=O)OC	false
COC(=O)C(C)Oc1ccc(Oc2ccc(Cl)cc2Cl)cc1 (configuration not stated)	false
COP(N)(=O)SC (configuration not stated)	false
CN(C)C(=S)SSC(=S)N(C)C	true
CCCCOC(=O)c1ccccc1C(=O)OCCCC	false
